Value source: patent US20080300243A1

# targetOrTestSystem: VR1 (Homo sapiens)
# Sequence (Q8NER1 whole entry): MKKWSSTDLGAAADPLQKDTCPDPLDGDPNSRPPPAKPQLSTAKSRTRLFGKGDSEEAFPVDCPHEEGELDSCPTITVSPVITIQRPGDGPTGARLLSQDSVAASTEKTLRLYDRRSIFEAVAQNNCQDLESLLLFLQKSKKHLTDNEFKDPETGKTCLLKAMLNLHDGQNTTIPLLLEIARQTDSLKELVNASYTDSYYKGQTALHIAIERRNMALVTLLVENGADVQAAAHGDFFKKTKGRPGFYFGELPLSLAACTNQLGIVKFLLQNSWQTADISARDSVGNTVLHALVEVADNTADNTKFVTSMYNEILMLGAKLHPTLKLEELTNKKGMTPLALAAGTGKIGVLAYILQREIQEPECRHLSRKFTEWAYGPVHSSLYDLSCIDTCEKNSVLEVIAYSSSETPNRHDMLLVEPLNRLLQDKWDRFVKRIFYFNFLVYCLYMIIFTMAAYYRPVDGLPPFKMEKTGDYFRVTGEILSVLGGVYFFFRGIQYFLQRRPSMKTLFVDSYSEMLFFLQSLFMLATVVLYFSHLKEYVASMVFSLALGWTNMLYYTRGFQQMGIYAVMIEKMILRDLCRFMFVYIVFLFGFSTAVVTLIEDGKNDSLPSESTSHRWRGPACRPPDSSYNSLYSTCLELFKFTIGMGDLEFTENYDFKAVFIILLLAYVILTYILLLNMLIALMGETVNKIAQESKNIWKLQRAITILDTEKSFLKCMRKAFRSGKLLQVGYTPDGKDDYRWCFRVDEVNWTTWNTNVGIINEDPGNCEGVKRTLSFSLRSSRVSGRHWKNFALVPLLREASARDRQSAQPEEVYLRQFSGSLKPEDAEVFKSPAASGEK
# assayDetails: Calcium uptake assay, low pH (proton) stimulus
# Format: cell-based
# Parameters: expressed in transfected cells; host or cells: T-REx HEK 293 (Invitrogen), pcDNA5/TO vector
# conditionSet: HEK293; 0.3 μM compound; low pH agonist; HEK 293 cells expressing hVR1; read-out: Low pH % Inhib. @ 0.3 μM
recordedEndpoint: inhibition at 0.3 µM (%)

(a) COc1c(C#CC(C)(C)C)ccc(C(=O)Nc2cccc3cnccc23)c1F [Compound 176]
(b) Cc1cc(C#CC2CCCC2)ccc1C(=O)Nc1ccc2c(c1)OCCO2 [Compound 140]
Task: Which value of inhibition at 0.3 µM is greater, the one for a or the one for b ? Mark your answer with the label of the selected entry.
Output: a
